Reference for the values: the supplement of paper PMC6757056

Attribute: normalized RNA/DNA level without ligand (log10)
B1: library; a variant is named by its letters at N, in order (parent)
chain: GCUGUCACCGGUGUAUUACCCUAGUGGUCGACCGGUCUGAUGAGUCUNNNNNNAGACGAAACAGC

Variants of: B1
testProtocol: normalized RNA/DNA level without ligand (relative to sTRSVctl = 100) (log10 (% of sTRSVctl)); ligand: hypoxanthine (xanthine aptamer); higher = less ribozyme self-cleavage, higher mRNA level
conditionInfo: HEK293T, reporter: mCherry (pCS4076), ligand present: no
endpoint: normalized RNA/DNA level without ligand (log10)

> print(dat)
                                     seqtext  recordednumber
 1  GCUGUCACCGGUGUAUUACCCUAGUGGUCGACCGGUCUGAUGAGUCUGGCCCUAGACGAAACAGC [GGCCCU]               2
 2  GCUGUCACCGGUGUAUUACCCUAGUGGUCGACCGGUCUGAUGAGUCUGCCGUAAGACGAAACAGC [GCCGUA]            1.84
 3  GCUGUCACCGGUGUAUUACCCUAGUGGUCGACCGGUCUGAUGAGUCUUACUCAAGACGAAACAGC [UACUCA]            1.91
 4  GCUGUCACCGGUGUAUUACCCUAGUGGUCGACCGGUCUGAUGAGUCUGCUAAAAGACGAAACAGC [GCUAAA]            1.77
 5  GCUGUCACCGGUGUAUUACCCUAGUGGUCGACCGGUCUGAUGAGUCUCCUAUCAGACGAAACAGC [CCUAUC]            2.04
 6  GCUGUCACCGGUGUAUUACCCUAGUGGUCGACCGGUCUGAUGAGUCUUGCUAGAGACGAAACAGC [UGCUAG]            1.66
 7  GCUGUCACCGGUGUAUUACCCUAGUGGUCGACCGGUCUGAUGAGUCUCACCACAGACGAAACAGC [CACCAC]            1.81
 8  GCUGUCACCGGUGUAUUACCCUAGUGGUCGACCGGUCUGAUGAGUCUACUGCGAGACGAAACAGC [ACUGCG]            1.46
 9  GCUGUCACCGGUGUAUUACCCUAGUGGUCGACCGGUCUGAUGAGUCUGUUGUUAGACGAAACAGC [GUUGUU]             1.9
10  GCUGUCACCGGUGUAUUACCCUAGUGGUCGACCGGUCUGAUGAGUCUAGGUUGAGACGAAACAGC [AGGUUG]            1.48
11  GCUGUCACCGGUGUAUUACCCUAGUGGUCGACCGGUCUGAUGAGUCUCCUGUCAGACGAAACAGC [CCUGUC]            1.99
12  GCUGUCACCGGUGUAUUACCCUAGUGGUCGACCGGUCUGAUGAGUCUAACACAAGACGAAACAGC [AACACA]            1.83
13  GCUGUCACCGGUGUAUUACCCUAGUGGUCGACCGGUCUGAUGAGUCUGUAUCCAGACGAAACAGC [GUAUCC]            1.86
14  GCUGUCACCGGUGUAUUACCCUAGUGGUCGACCGGUCUGAUGAGUCUUAUUUCAGACGAAACAGC [UAUUUC]            1.91
15  GCUGUCACCGGUGUAUUACCCUAGUGGUCGACCGGUCUGAUGAGUCUAAUCCCAGACGAAACAGC [AAUCCC]            1.84
16  GCUGUCACCGGUGUAUUACCCUAGUGGUCGACCGGUCUGAUGAGUCUCCAUGAAGACGAAACAGC [CCAUGA]            1.79
17  GCUGUCACCGGUGUAUUACCCUAGUGGUCGACCGGUCUGAUGAGUCUCCGCCGAGACGAAACAGC [CCGCCG]            1.66
18  GCUGUCACCGGUGUAUUACCCUAGUGGUCGACCGGUCUGAUGAGUCUUAAAUAAGACGAAACAGC [UAAAUA]            1.84
19  GCUGUCACCGGUGUAUUACCCUAGUGGUCGACCGGUCUGAUGAGUCUCCGAACAGACGAAACAGC [CCGAAC]            1.61
20  GCUGUCACCGGUGUAUUACCCUAGUGGUCGACCGGUCUGAUGAGUCUGCUUGCAGACGAAACAGC [GCUUGC]            1.87
21  GCUGUCACCGGUGUAUUACCCUAGUGGUCGACCGGUCUGAUGAGUCUUGCGUGAGACGAAACAGC [UGCGUG]            1.68
22  GCUGUCACCGGUGUAUUACCCUAGUGGUCGACCGGUCUGAUGAGUCUCACUGAAGACGAAACAGC [CACUGA]            1.83
23  GCUGUCACCGGUGUAUUACCCUAGUGGUCGACCGGUCUGAUGAGUCUGCCGAGAGACGAAACAGC [GCCGAG]            1.39
24  GCUGUCACCGGUGUAUUACCCUAGUGGUCGACCGGUCUGAUGAGUCUGAGGGAAGACGAAACAGC [GAGGGA]            1.52
25  GCUGUCACCGGUGUAUUACCCUAGUGGUCGACCGGUCUGAUGAGUCUUCUAGGAGACGAAACAGC [UCUAGG]            1.92
26  GCUGUCACCGGUGUAUUACCCUAGUGGUCGACCGGUCUGAUGAGUCUAACCUAAGACGAAACAGC [AACCUA]            1.84
27  GCUGUCACCGGUGUAUUACCCUAGUGGUCGACCGGUCUGAUGAGUCUGAAGUUAGACGAAACAGC [GAAGUU]            1.83
28  GCUGUCACCGGUGUAUUACCCUAGUGGUCGACCGGUCUGAUGAGUCUAAUGCUAGACGAAACAGC [AAUGCU]            1.86
29  GCUGUCACCGGUGUAUUACCCUAGUGGUCGACCGGUCUGAUGAGUCUACCUAUAGACGAAACAGC [ACCUAU]            1.79
30  GCUGUCACCGGUGUAUUACCCUAGUGGUCGACCGGUCUGAUGAGUCUCUUAGCAGACGAAACAGC [CUUAGC]            1.87
31  GCUGUCACCGGUGUAUUACCCUAGUGGUCGACCGGUCUGAUGAGUCUGUCUCGAGACGAAACAGC [GUCUCG]             1.7
32  GCUGUCACCGGUGUAUUACCCUAGUGGUCGACCGGUCUGAUGAGUCUGUCUGUAGACGAAACAGC [GUCUGU]            1.84
33  GCUGUCACCGGUGUAUUACCCUAGUGGUCGACCGGUCUGAUGAGUCUAACCUCAGACGAAACAGC [AACCUC]            1.96
34  GCUGUCACCGGUGUAUUACCCUAGUGGUCGACCGGUCUGAUGAGUCUUAUACAAGACGAAACAGC [UAUACA]            1.85
35  GCUGUCACCGGUGUAUUACCCUAGUGGUCGACCGGUCUGAUGAGUCUGGGUCGAGACGAAACAGC [GGGUCG]            1.78
36  GCUGUCACCGGUGUAUUACCCUAGUGGUCGACCGGUCUGAUGAGUCUUACCCUAGACGAAACAGC [UACCCU]            1.92
37  GCUGUCACCGGUGUAUUACCCUAGUGGUCGACCGGUCUGAUGAGUCUGAUCUAAGACGAAACAGC [GAUCUA]            1.86
38  GCUGUCACCGGUGUAUUACCCUAGUGGUCGACCGGUCUGAUGAGUCUUGUCGCAGACGAAACAGC [UGUCGC]            1.89
39  GCUGUCACCGGUGUAUUACCCUAGUGGUCGACCGGUCUGAUGAGUCUGAAUCAAGACGAAACAGC [GAAUCA]            1.81
40  GCUGUCACCGGUGUAUUACCCUAGUGGUCGACCGGUCUGAUGAGUCUACGCUAAGACGAAACAGC [ACGCUA]            1.69
41  GCUGUCACCGGUGUAUUACCCUAGUGGUCGACCGGUCUGAUGAGUCUUAUAAAAGACGAAACAGC [UAUAAA]            1.77
42  GCUGUCACCGGUGUAUUACCCUAGUGGUCGACCGGUCUGAUGAGUCUGCGCAGAGACGAAACAGC [GCGCAG]            1.06
43  GCUGUCACCGGUGUAUUACCCUAGUGGUCGACCGGUCUGAUGAGUCUAUCCCUAGACGAAACAGC [AUCCCU]             1.9
44  GCUGUCACCGGUGUAUUACCCUAGUGGUCGACCGGUCUGAUGAGUCUCUGCUUAGACGAAACAGC [CUGCUU]            1.93
45  GCUGUCACCGGUGUAUUACCCUAGUGGUCGACCGGUCUGAUGAGUCUCCCGUGAGACGAAACAGC [CCCGUG]            1.81
46  GCUGUCACCGGUGUAUUACCCUAGUGGUCGACCGGUCUGAUGAGUCUAUCCGGAGACGAAACAGC [AUCCGG]             1.7
